- System: KRAS-mutant PDC multicell tumor spheroid viability
- Assay overview: Anticancer human tumor 521955-158-R2-J5-PDC patient-derived pancreatic carcinoma cell line growth inhibition [KRAS2]
- Measurement conditions: second compound 1 µM; first compound 0.0316 µM; stronger effect = lower value
viability, T/C values by entry
Numbers only here, please. The scale is %.

{"columns": ["Compound", "Assayed system", "viability, T/C (%)"],
 "data": [
  ["CC(=O)Nc1cccc(-n2c(=O)n(C3CC3)c(=O)c3c(Nc4ccc(I)cc4F)n(C)c(=O)c(C)c32)c1 + C=CC(=O)N1CCN(c2nc(OCC3CCCN3C)nc3c2CCN(c2cccc4cccc(C)c24)C3)CC1CC#N", "KRAS-mutant PDC multicell tumor spheroid viability", 9.76],
  ["O=C(c1cc(Cc2n[nH]c(=O)c3ccccc23)ccc1F)N1CCN(C(=O)C2CC2)CC1 + C=CC(=O)N1CCN(c2nc(=O)n(-c3c(C)ccnc3C(C)C)c3nc(-c4c(O)cccc4F)c(F)cc23)C(C)C1", "KRAS-mutant PDC multicell tumor spheroid viability", 122]
]}

Note to self: viability, T/C recorded for CC1COCCN1c1cc(-c2ccnn2C)c2ccnc(-c3ccn[nH]3)c2n1 (stereo not drawn) + C=CC(=O)N1CCN(c2nc(OCC3CCCN3C)nc3c2CCN(c2cccc4cccc(C)c24)C3)CC1CC#N was 17.8

----------
- Test system: KRAS-mutant PDC multicell tumor spheroid viability
- Assay overview: Anticancer human tumor 521955-158-R2-J5-PDC cell line growth inhibition [KRAS2];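 also: viability read after seven days of drug exposure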
- Measurement conditions: second compound 0.0316 µM; first compound 0.1 µM; stronger effect = lower value
Parameter measured: viability, T/C (%)
All answers are understood in %, so give the number only.

Before answering, review these 6 worked examples.
{"columns": ["Compound", "Parameter measured", "Experimental result"],
 "data": [
  ["CN(C)C/C=C/C(=O)Nc1cc2c(Nc3ccc(F)c(Cl)c3)ncnc2cc1O[C@H]1CCOC1 + C=CC(=O)N1CCN(c2nc(OCC3CCCN3C)nc3c2CCN(c2cccc4cccc(C)c24)C3)CC1CC#N", "viability, T/C", 65.6],
  ["CC1OCC2(CCN(c3cnc(Sc4ccnc(N)c4Cl)c(N)n3)CC2)C1N (stereo not given) + C=CC(=O)N1CCN(c2nc(OCC3CCCN3C)nc3c2CCN(c2cccc4cccc(C)c24)C3)CC1CC#N", "viability, T/C", 79],
  ["CC(C)n1nc(-c2ccc3oc(N)nc3c2)c2c(N)ncnc21 + C=CC(=O)N1CCN(c2nc(OCC3CCCN3C)nc3c2CCN(c2cccc4cccc(C)c24)C3)CC1CC#N", "viability, T/C", 25.6],
  ["CCNC(=O)CC1N=C(c2ccc(Cl)cc2)c2cc(OC)ccc2-n2c(C)nnc21 (stereo not given) + C=CC(=O)N1CCN(c2nc(OCC3CCCN3C)nc3c2CCN(c2cccc4cccc(C)c24)C3)CC1CC#N", "viability, T/C", 94.9],
  ["CC1(C)CCC(CN2CCN(c3ccc(C(=O)NS(=O)(=O)c4ccc(NCC5CCOCC5)c([N+](=O)[O-])c4)c(Oc4cnc5[nH]ccc5c4)c3)CC2)=C(c2ccc(Cl)cc2)C1 + C=CC(=O)N1CCN(c2nc(OCC3CCCN3C)nc3c2CCN(c2cccc4cccc(C)c24)C3)CC1CC#N", "viability, T/C", 101],
  ["COC(=O)c1ccc2c(C(=Nc3ccc(N(C)C(=O)CN4CCN(C)CC4)cc3)c3ccccc3)c(O)[nH]c2c1 + C=CC(=O)N1CCN(c2nc(OCC3CCCN3C)nc3c2CCN(c2cccc4cccc(C)c24)C3)CC1CC#N", "viability, T/C", 67.5]
]}

Recorded result, Cn1nccc1Nc1nccc(-c2cc3c(s2)C(C)(C)N(CCN2CCOCC2)C3=O)n1 + C=CC(=O)N1CCN(c2nc(OCC3CCCN3C)nc3c2CCN(c2cccc4cccc(C)c24)C3)CC1CC#N , viability, T/C: 95.3

Record Cn1ncnc1[C@H]1c2n[nH]c(=O)c3cc(F)cc(c23)N[C@@H]1c1ccc(F)cc1 + C=CC(=O)N1CCN(c2nc(OCC3CCCN3C)nc3c2CCN(c2cccc4cccc(C)c24)C3)CC1CC#N , field viability, T/C: 82.5

Input CC(C)NCC(C(=O)N1CCN(c2ncnc3c2C(C)CC3O)CC1)c1ccc(Cl)cc1 (stereo not given) + C=CC(=O)N1CCN(c2nc(OCC3CCCN3C)nc3c2CCN(c2cccc4cccc(C)c24)C3)CC1CC#N . Output viability, T/C: 110

Recorded result, O=C(c1cc(Cc2n[nH]c(=O)c3ccccc23)ccc1F)N1CCN(C(=O)C2CC2)CC1 + C=CC(=O)N1CCN(c2nc(OCC3CCCN3C)nc3c2CCN(c2cccc4cccc(C)c24)C3)CC1CC#N , viability, T/C: 101

----------
- Test system: KRAS-mutant PDC multicell tumor spheroid viability
- Assay overview: Anticancer human tumor 521955-158-R2-J5-PDC cell line growth inhibition [KRAS2];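 also: viability read after seven days of drug exposure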
- Measurement conditions: second compound 0.0316 µM; first compound 0.01 µM; stronger effect = lower value
Parameter measured: viability, T/C (%)
# output: bare number, implied unit %

Sample records with viability, T/C:
{"columns": ["Molecule", "Experimental result"],
 "data": [
  ["CC1COCCN1c1cc(-c2ccnn2C)c2ccnc(-c3ccn[nH]3)c2n1 (configuration not stated) + C=CC(=O)N1CCN(c2nc(OCC3CCCN3C)nc3c2CCN(c2cccc4cccc(C)c24)C3)CC1CC#N", 95.8],
  ["CC(C)n1nc(-c2ccc3oc(N)nc3c2)c2c(N)ncnc21 + C=CC(=O)N1CCN(c2nc(OCC3CCCN3C)nc3c2CCN(c2cccc4cccc(C)c24)C3)CC1CC#N", 49.6],
  ["CC(=O)Nc1cccc(-n2c(=O)n(C3CC3)c(=O)c3c(Nc4ccc(I)cc4F)n(C)c(=O)c(C)c32)c1 + C=CC(=O)N1CCN(c2nc(OCC3CCCN3C)nc3c2CCN(c2cccc4cccc(C)c24)C3)CC1CC#N", 20.1],
  ["CN(C)C/C=C/C(=O)Nc1cc2c(Nc3ccc(F)c(Cl)c3)ncnc2cc1O[C@H]1CCOC1 + C=CC(=O)N1CCN(c2nc(OCC3CCCN3C)nc3c2CCN(c2cccc4cccc(C)c24)C3)CC1CC#N", 73.5]
]}

Looking up Cn1ncnc1[C@H]1c2n[nH]c(=O)c3cc(F)cc(c23)N[C@@H]1c1ccc(F)cc1 + C=CC(=O)N1CCN(c2nc(OCC3CCCN3C)nc3c2CCN(c2cccc4cccc(C)c24)C3)CC1CC#N , I found its viability, T/C recorded as 81.4

GET /value?item= CCN1CCN(Cc2ccc(Nc3ncc(F)c(-c4cc(F)c5nc(C)n(C(C)C)c5c4)n3)nc2)CC1 + C=CC(=O)N1CCN(c2nc(OCC3CCCN3C)nc3c2CCN(c2cccc4cccc(C)c24)C3)CC1CC#N &field=viability, T/C returns 107

Value of measured viability, T/C for the entry CC(=O)OC12COC1CC(O)C1(C)C(=O)C(O)C3=C(C)C(OC(=O)C(O)C(NC(=O)OC(C)(C)C)c4ccccc4)CC(O)(C(OC(=O)c4ccccc4)C21)C3(C)C (configuration not stated) + C=CC(=O)N1CCN(c2nc(OCC3CCCN3C)nc3c2CCN(c2cccc4cccc(C)c24)C3)CC1CC#N : 21.3

----------
- Test system: KRAS-mutant PDC multicell tumor spheroid viability
- Assay overview: Anticancer human tumor 521955-158-R2-J5-PDC cell line growth inhibition [KRAS2];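 also: viability read after seven days of drug exposure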
- Measurement conditions: second compound 0.316 µM; first compound 0.0316 µM; stronger effect = lower value
Parameter measured: viability, T/C (%)
Give the quantity in %, number only.

Examples with answers:
{"columns": ["Compound", "Unit", "viability, T/C"],
 "data": [
  ["Cn1ncnc1[C@H]1c2n[nH]c(=O)c3cc(F)cc(c23)N[C@@H]1c1ccc(F)cc1 + C=CC(=O)N1CCN(c2nc(OCC3CCCN3C)nc3c2CCN(c2cccc4cccc(C)c24)C3)CC1CC#N", "%", 75],
  ["COc1cc2nccc(Oc3ccc(NC(=O)C4(C(=O)Nc5ccc(F)cc5)CC4)cc3)c2cc1OC + CC1OCC2(CCN(c3cnc(Sc4ccnc(N)c4Cl)c(N)n3)CC2)C1N", "%", 64.3],
  ["Cn1nccc1Nc1nccc(-c2cc3c(s2)C(C)(C)N(CCN2CCOCC2)C3=O)n1 + CNCc1ccccc1-c1csc(C(C)Nc2nc(C)nc3cc(OC)c(OC)cc23)c1", "%", 98.3],
  ["CC1OCC2(CCN(c3cnc(Sc4ccnc(N)c4Cl)c(N)n3)CC2)C1N (stereo not given) + C=CC(=O)N1CCN(c2nc(OCC3CCCN3C)nc3c2CCN(c2cccc4cccc(C)c24)C3)CC1CC#N", "%", 84.5]
]}

Here COc1cc(Nc2ncc3c(n2)-c2ccc(Cl)cc2C(c2c(F)cccc2OC)=NC3)ccc1C(=O)O + CNCc1ccccc1-c1csc(C(C)Nc2nc(C)nc3cc(OC)c(OC)cc23)c1 was tested on KRAS-mutant PDC multicell tumor spheroid viability, and its viability, T/C came to 48.4
